For each record, write down the corresponding TGI.
System: MDA-MB-231 breast
Assay: NCI tumour cell line growth inhibition, 48 h

input: For the compound FC(F)(F)c1ccc(NCc2nc3ccccc3[nH]2)cc1 , what TGI is on record?
output: 78.2 µM

input: What do you have for COC(=O)C(/C(=N/N)C(=O)Nc1cccc(O)c1)c1nc2ccccc2[nH]c1=O (configuration not stated) ?
output: > 100 µM

input: What do you have for CC1COCCN1CC#CCOC(=O)c1cc2ccccc2oc1=O (configuration not stated) ?
output: > 100 µM

input: What do you have for COc1ccc(C(=C2C(=O)N(c3ccccc3)C(=O)C2=C(C)C)c2ccc(OC)cc2)cc1 ?
output: > 35.4 µM

input: What do you have for O=c1c2cc(S(=O)(=O)Nc3ccc(Cl)cc3Cl)ccc2ncn1NS(=O)(=O)c1cccc2ccccc12 ?
output: > 100 µM

input: What do you have for Fc1ccc(-c2c(-c3ccncc3)[nH]c3nccnc23)cc1 ?
output: > 25 µM

input: What do you have for CCc1ccc([O-])c(C=NCCCN(C)CCCN=Cc2cc(C)ccc2[O-])c1.[Co+3].[N-]=[N+]=[N-] ?
output: 38.5 mg/L
